- test-system: recombinant human GST-SYK (Homo sapiens, UniProt P43405)
- Construct: purchased Carna Biosciences 08-176
- test-name: Homogeneous Time-Resolved Fluorescence (HTRF) assay for the recombinant human Syk enzyme
- Type: biochemical
- condition: GST-hSYK 5 pM, ATP 25 μM, 10-dose titration 10 μM to 0.508 nM; read-out: rhSYK Activity (IC50 rating)
quantity-kind: IC50

CN1CCN(c2cccc(Nc3cc(N[C@@H]4CCCC[C@@H]4N)cnc3C(N)=O)n2)CC1 [Example 1.119] : < 10 nM
Cc1cc2ccsc2c(Nc2cc(N[C@@H]3CCCC[C@@H]3N)cnc2C(N)=O)n1 [Example 1.107] : < 10 nM
CCC(C)(N)CNc1cnc(C(N)=O)c(Nc2cc(C)cc(C)n2)c1 (stereo not drawn) [Example 1.117] : < 10 nM
Cc1cc(C)nc(Nc2cc(N[C@@H]3C[C@H]3N)cnc2C(N)=O)c1 (relative stereo) [Example 2.13] : 100 to 1000 nM
Cc1nc(Nc2cc(N[C@@H]3CCCC[C@@H]3N)cnc2C(N)=O)ccc1-c1ccc(C(O)C(F)F)cc1 (stereo partly drawn) [Example 3.8] : < 10 nM
Cc1cc(-n2nccn2)cc(Nc2cc(N[C@@H]3CCCC[C@@H]3N)cnc2C(N)=O)n1 [Example 1.76] : < 10 nM
Cc1nc(C)c(Cl)c(Nc2cc(N[C@@H]3CCCC[C@@H]3N)cnc2C(N)=O)n1 [Example 1.126] : 1000 to 10000 nM
COc1ccc(-c2ccc(Nc3cc(N[C@@H]4CCCC[C@@H]4N)cnc3C(N)=O)nc2C)cn1 [Example 3.22] : < 10 nM

Specify measured IC50 for Cc1nc(Nc2cc(N[C@@H]3CCCC[C@@H]3N)cnc2C(N)=O)ccc1-c1ccc(-c2nccn2C)cc1 [Example 3.29] . < 10 nM

State its IC50 for this compound: Cc1cc(Nc2cc(N[C@@H]3CCCC[C@@H]3N)cnc2C(N)=O)nc(C)n1 [Example 1.125] < 10 nM

Tell me measured IC50 for Cc1nc(Nc2cc(N[C@@H]3CCCC[C@@H]3N)cnc2C(N)=O)ccc1OC(C)C [Example 5.1] please. < 10 nM

Return IC50 (reported value) for this compound: NC(=O)c1ncc(N[C@@H]2CCCC[C@@H]2N)cc1Nc1ccn(-c2ccc(Cl)cc2)n1 [Example 1.63] < 10 nM
